- subject.of.test: H+, K+-ATPase (Sus scrofa)
- Construct: H^+, K^+-ATPase was prepared from a fundic gland area of fresh hog gastric mucosa
- Sequence (P19156 whole entry): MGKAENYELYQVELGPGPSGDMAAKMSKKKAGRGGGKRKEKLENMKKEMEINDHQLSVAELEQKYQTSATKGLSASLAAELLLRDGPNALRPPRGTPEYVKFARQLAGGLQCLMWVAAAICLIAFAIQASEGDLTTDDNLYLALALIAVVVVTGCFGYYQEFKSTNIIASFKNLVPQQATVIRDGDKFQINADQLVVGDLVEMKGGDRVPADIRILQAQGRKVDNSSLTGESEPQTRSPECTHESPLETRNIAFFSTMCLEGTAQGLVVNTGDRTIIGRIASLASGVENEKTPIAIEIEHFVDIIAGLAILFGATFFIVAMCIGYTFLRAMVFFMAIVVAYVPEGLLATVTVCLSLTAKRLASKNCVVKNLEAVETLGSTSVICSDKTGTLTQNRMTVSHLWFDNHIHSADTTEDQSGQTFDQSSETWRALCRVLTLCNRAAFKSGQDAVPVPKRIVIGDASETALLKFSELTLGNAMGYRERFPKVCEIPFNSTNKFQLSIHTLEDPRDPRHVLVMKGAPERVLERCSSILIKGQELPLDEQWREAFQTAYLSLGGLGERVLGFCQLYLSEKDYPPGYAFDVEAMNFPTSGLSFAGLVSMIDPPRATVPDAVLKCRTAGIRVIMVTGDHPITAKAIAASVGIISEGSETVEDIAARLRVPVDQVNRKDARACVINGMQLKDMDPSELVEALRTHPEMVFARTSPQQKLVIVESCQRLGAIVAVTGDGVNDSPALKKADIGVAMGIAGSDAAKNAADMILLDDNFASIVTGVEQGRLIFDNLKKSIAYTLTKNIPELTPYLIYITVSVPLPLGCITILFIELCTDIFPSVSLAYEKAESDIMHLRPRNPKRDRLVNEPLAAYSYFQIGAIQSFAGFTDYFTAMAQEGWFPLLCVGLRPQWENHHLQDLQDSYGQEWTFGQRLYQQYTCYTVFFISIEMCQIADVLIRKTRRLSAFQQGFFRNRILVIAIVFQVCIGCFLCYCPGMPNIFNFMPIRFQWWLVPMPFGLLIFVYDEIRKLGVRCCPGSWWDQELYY
- Sequence (P18434 whole entry partner): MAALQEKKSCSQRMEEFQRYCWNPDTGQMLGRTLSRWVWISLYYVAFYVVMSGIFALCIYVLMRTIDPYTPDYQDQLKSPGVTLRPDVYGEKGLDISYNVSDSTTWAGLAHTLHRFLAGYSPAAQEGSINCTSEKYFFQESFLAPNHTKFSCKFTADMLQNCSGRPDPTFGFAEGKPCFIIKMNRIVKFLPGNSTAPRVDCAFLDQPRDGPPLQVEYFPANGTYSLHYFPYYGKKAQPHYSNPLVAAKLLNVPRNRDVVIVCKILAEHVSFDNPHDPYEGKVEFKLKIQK
- assay.explanation: H+, K+-ATPase activity inhibitory action
- stated.conditions: hog gastric mucosa enzyme, preincubation 30 minutes at 37° C., pH 6.1
- Procedure: H^+, K^+-ATPase Activity Inhibitory Action H^+, K^+-ATPase was prepared from a fundic gland area of fresh hog gastric mucosa using a variation of the Chang's method [Biochim. Biophys. Acta 464, 313 (1977)]. […] Residual enzyme activity at each concentration of test compound was determined as the amount of H^+, K^+-ATPase activity as a percentage of the H^+, K^+-ATPase activity of a control group (solvent addition). […]
readout.label: IC50 (nM)
Report as a plain number; the unit nM is understood.

State the recorded IC50 for this entry: Cc1c[n+]2c(c(C)c1OCC(CO)CO)CSn1c-2nc2ccccc21 [Example 16]
220
